These entries and their values trace back to patent US12623942B2.

test: Complexing constant Log K in methanol at 25° C.; format: binding
# Log K(Rb^+, MeOH, 25° C.) per record follows
Could you keep your reply to the number by itself?

Here are 4 compounds together with their reported answers.
{"compound": "CCOC(=O)COc1c2cc(C(C)(C)C)cc1Cc1cc(C(C)(C)C)cc(c1OCC(=O)OCC)Cc1cc(C(C)(C)C)cc(c1OCC(=O)OCC)Cc1cc(C(C)(C)C)cc(c1OCC(=O)OCC)Cc1cc(C(C)(C)C)cc(c1OCC(=O)OCC)C2 [CEM 11]", "Log K(Rb^+, MeOH, 25° C.)": 5.6}
{"compound": "CCN(CC)C(=O)COc1c2cc(C(C)(C)C)cc1Cc1cc(C(C)(C)C)cc(c1OCC(=O)N(CC)CC)Cc1cc(C(C)(C)C)cc(c1OCC(=O)N(CC)CC)Cc1cc(C(C)(C)C)cc(c1OCC(=O)N(CC)CC)Cc1cc(C(C)(C)C)cc(c1OCC(=O)N(CC)CC)Cc1cc(C(C)(C)C)cc(c1OCC(=O)N(CC)CC)C2 [CEM2]", "Log K(Rb^+, MeOH, 25° C.)": 2.6}
{"compound": "CC(C)(C)c1cc2c(OCC(=O)N3CCCC3)c(c1)Cc1cc(C(C)(C)C)cc(c1OCC(=O)N1CCCC1)Cc1cc(C(C)(C)C)cc(c1OCC(=O)N1CCCC1)Cc1cc(C(C)(C)C)cc(c1OCC(=O)N1CCCC1)C2 [CEM 4]", "Log K(Rb^+, MeOH, 25° C.)": 3.0}
{"compound": "CCN(CC)C(=O)COc1c2cc(C(C)(C)C)cc1Cc1cc(C(C)(C)C)cc(c1OCC(=O)N(CC)CC)Cc1cc(C(C)(C)C)cc(c1OCC(=O)N(CC)CC)Cc1cc(C(C)(C)C)cc(c1OCC(=O)N(CC)CC)C2 [CEM1]", "Log K(Rb^+, MeOH, 25° C.)": 3.8}

# input for lookup
Input CCOC(=O)COc1c2cc(C(C)(C)C)cc1Cc1cc(C(C)(C)C)cc(c1OCC(=O)OCC)Cc1cc(C(C)(C)C)cc(c1OCC(=O)OCC)Cc1cc(C(C)(C)C)cc(c1OCC(=O)OCC)C2 [CEM10] . Output Log K(Rb^+, MeOH, 25° C.): 3.1

----------
experiment: Complexing constant Log K in methanol at 25° C.; type: binding
# Log K(Na^+, MeOH, 25° C.) per record follows

Here are 4 molecules together with their reported answers.
{"molecule": "CC(C)(C)c1cc2c(OCC(=O)N3CCCC3)c(c1)Cc1cc(C(C)(C)C)cc(c1OCC(=O)N1CCCC1)Cc1cc(C(C)(C)C)cc(c1OCC(=O)N1CCCC1)Cc1cc(C(C)(C)C)cc(c1OCC(=O)N1CCCC1)C2 [CEM 4]", "Log K(Na^+, MeOH, 25° C.)": 7.2}
{"molecule": "CCOC(=O)COc1c2cc(C(C)(C)C)cc1Cc1cc(C(C)(C)C)cc(c1OCC(=O)OCC)Cc1cc(C(C)(C)C)cc(c1OCC(=O)OCC)Cc1cc(C(C)(C)C)cc(c1OCC(=O)OCC)C2 [CEM10]", "Log K(Na^+, MeOH, 25° C.)": 5.0}
{"molecule": "CCN(CC)C(=O)COc1c2cc(C(C)(C)C)cc1Cc1cc(C(C)(C)C)cc(c1OCC(=O)N(CC)CC)Cc1cc(C(C)(C)C)cc(c1OCC(=O)N(CC)CC)Cc1cc(C(C)(C)C)cc(c1OCC(=O)N(CC)CC)C2 [CEM1]", "Log K(Na^+, MeOH, 25° C.)": 7.9}
{"molecule": "CCOC(=O)COc1c2cc(C(C)(C)C)cc1Cc1cc(C(C)(C)C)cc(c1OCC(=O)OCC)Cc1cc(C(C)(C)C)cc(c1OCC(=O)OCC)Cc1cc(C(C)(C)C)cc(c1OCC(=O)OCC)Cc1cc(C(C)(C)C)cc(c1OCC(=O)OCC)C2 [CEM 11]", "Log K(Na^+, MeOH, 25° C.)": 4.4}

Input CCN(CC)C(=O)COc1c2cc(C(C)(C)C)cc1Cc1cc(C(C)(C)C)cc(c1OCC(=O)N(CC)CC)Cc1cc(C(C)(C)C)cc(c1OCC(=O)N(CC)CC)Cc1cc(C(C)(C)C)cc(c1OCC(=O)N(CC)CC)Cc1cc(C(C)(C)C)cc(c1OCC(=O)N(CC)CC)Cc1cc(C(C)(C)C)cc(c1OCC(=O)N(CC)CC)C2 [CEM2] . Output Log K(Na^+, MeOH, 25° C.): 2.8
